We begin with a simple list: items and their reported IC50.
test system: PGE2 production in LPS-stimulated macrophages of humans, mice, and rats; assay: PGE2 production in LPS-stimulated macrophages, range over species; assay type: cell-based; conditions: Macrophage, read-out: IC50 range PGE2 production

CC1(C)Cc2c(-c3ccccc3)c(-c3ccc(Cl)cc3)c(CC(=O)NCC(=O)O)n2C1
470 to 780 nM

Next compound, please.
Recorded IC50 (compound CC1(C)Cc2c(-c3ccccc3)c(-c3ccc(Cl)cc3)c(CC(=O)O)n2C1 [Licofelone, reference compound] ): 560 to 1310 nM

----------
target: rat 5-LOX (Rattus norvegicus); assay: Cell-free fluorometric 5-LOX assay; type: biochemical
Sequence (P12527 whole entry): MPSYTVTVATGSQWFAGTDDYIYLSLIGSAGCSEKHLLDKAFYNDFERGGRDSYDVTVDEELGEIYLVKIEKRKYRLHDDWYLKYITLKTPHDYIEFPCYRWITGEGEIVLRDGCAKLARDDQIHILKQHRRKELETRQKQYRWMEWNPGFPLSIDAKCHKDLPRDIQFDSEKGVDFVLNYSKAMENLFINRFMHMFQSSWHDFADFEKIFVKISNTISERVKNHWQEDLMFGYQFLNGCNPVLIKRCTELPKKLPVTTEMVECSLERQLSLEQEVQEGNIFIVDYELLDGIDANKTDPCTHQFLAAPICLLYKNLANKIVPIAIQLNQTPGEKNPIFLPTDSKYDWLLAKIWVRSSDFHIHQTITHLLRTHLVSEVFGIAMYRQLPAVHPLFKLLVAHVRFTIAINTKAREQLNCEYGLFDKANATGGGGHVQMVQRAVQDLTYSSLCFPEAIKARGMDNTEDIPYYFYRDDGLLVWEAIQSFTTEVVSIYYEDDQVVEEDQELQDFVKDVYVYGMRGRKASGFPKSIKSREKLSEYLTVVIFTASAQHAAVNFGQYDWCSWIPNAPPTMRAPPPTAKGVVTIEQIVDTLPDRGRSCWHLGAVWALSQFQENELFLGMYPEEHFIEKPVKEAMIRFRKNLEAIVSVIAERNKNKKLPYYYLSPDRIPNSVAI
quantity: pIC50
Scale for pIC50: -log10 of concentration given in mol/L; no unit attached.

CC1(C)Cc2c(-c3ccccc3)c(-c3ccc(Cl)cc3)c(CC(=O)O)n2C1 [Licofelone, reference compound]
6.19

Attention now turns to another entry.
# pIC50 measured on rat 5-LOX (Rattus norvegicus) for item CC1(C)Cc2c(-c3ccccc3)c(-c3ccc(Cl)cc3)c(CC(=O)NCC(=O)O)n2C1 [LFA-9] = 6.05

----------
biological target: rat mPGES-1 (Rattus norvegicus, UniProt Q9JHF3); assay: Binding assay using isothermal titration calorimetry
quantity: Kd (µM)
The figure you give is taken to be in µM; do not add the unit.

Field Kd (entry "CC1(C)Cc2c(-c3ccccc3)c(-c3ccc(Cl)cc3)c(CC(=O)NCC(=O)O)n2C1" ) reads 3.3

----------
Target sequence: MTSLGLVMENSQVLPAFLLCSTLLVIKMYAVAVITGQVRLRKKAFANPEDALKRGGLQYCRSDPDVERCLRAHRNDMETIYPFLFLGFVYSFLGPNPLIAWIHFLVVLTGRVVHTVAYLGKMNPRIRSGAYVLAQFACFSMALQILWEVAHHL
quantity: pIC50
As a rule, pIC50 stands for the negative log10 of the concentration, concentration in M.

CC1(C)Cc2c(-c3ccccc3)c(-c3ccc(Cl)cc3)c(CC(=O)O)n2C1 [Licofelone, reference compound]
4.91

Consider the record given below.
Per the records, this molecule ( "CC1(C)Cc2c(-c3ccccc3)c(-c3ccc(Cl)cc3)c(CC(=O)NCC(=O)O)n2C1" ) has pIC50 equal to 5.85

----------
Reported values: IC50 for mouse 5-LOX (Mus musculus), one per item.
The answer is to be given in nM; state only the numeric part.

CC1(C)Cc2c(-c3ccccc3)c(-c3ccc(Cl)cc3)c(CC(=O)O)n2C1 [Licofelone, reference compound]
2340

Note: attention shifts to another entry.
Field IC50 (mouse 5-LOX (Mus musculus)), entry "CC1(C)Cc2c(-c3ccccc3)c(-c3ccc(Cl)cc3)c(CC(=O)NCC(=O)O)n2C1" : 2640

----------
Recorded measurements of pIC50, one per entry
biological target: human mPGES-1 (Homo sapiens, UniProt O14684); assay: Cell-free mPGES-1 assay; format: biochemical
Sequence (O14684 whole entry): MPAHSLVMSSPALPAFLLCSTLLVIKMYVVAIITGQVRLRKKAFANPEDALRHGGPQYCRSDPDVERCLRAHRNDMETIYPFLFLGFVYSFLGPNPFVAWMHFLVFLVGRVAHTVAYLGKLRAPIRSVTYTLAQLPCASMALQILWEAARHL
Schema: pIC50 number; meaning minus log10 of the concentration expressed in molar units.

CC1(C)Cc2c(-c3ccccc3)c(-c3ccc(Cl)cc3)c(CC(=O)O)n2C1 [Licofelone, reference compound]
4.85

Consider the record given below.
The molecule listed as CC1(C)Cc2c(-c3ccccc3)c(-c3ccc(Cl)cc3)c(CC(=O)NCC(=O)O)n2C1 [LFA-9] has a reported pIC50 of 6.06

----------
Target: human 5-LOX (Homo sapiens, UniProt P09917)
Sequence (P09917 1-674): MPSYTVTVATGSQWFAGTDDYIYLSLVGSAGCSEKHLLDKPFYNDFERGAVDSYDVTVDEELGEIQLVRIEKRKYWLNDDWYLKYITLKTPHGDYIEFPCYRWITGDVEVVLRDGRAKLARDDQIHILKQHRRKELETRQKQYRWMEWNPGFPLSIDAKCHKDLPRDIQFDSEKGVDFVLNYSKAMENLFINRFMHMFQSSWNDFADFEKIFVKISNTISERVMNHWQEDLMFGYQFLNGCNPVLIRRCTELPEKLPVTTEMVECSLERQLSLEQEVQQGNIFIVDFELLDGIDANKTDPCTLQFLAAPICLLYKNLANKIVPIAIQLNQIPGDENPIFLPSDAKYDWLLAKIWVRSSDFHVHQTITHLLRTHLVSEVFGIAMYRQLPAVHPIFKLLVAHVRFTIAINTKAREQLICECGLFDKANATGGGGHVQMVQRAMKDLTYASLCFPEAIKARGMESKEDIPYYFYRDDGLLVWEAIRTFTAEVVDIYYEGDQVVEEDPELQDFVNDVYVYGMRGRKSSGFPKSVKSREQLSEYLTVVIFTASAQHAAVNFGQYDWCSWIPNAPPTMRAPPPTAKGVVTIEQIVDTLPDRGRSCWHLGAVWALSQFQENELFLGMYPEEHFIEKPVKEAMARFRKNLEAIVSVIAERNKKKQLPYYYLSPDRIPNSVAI
Test: Binding assay using isothermal titration calorimetry
quantity: Kd (µM)
Could you give me the number in µM? Just the number is fine.

Consider CC1(C)Cc2c(-c3ccccc3)c(-c3ccc(Cl)cc3)c(CC(=O)NCC(=O)O)n2C1 [LFA-9] . Its measured Kd is 18

----------
Target sequence: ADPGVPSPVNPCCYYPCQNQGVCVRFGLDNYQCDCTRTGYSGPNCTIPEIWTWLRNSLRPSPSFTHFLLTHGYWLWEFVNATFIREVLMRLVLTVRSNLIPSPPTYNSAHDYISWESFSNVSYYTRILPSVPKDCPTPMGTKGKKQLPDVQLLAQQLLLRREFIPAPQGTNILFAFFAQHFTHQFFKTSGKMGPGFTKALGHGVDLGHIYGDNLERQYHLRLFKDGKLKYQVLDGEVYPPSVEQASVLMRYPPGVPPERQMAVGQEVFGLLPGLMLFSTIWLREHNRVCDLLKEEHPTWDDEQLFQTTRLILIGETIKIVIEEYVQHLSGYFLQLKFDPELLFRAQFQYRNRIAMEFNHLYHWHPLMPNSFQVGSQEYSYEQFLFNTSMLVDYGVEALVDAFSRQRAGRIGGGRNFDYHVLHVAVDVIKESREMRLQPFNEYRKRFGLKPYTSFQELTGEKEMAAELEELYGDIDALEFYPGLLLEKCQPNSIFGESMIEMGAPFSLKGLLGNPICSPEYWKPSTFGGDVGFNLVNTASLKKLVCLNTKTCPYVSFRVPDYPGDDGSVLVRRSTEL
quantity: pIC50
Here pIC50 is given on a logarithmic scale as minus log10 of the concentration in mol/L.

For CC1(C)Cc2c(-c3ccccc3)c(-c3ccc(Cl)cc3)c(CC(=O)O)n2C1 [Licofelone, reference compound] the compound record lists pIC50 as 5.76
